# tested-target: UniProt P56817
# Sequence (P56817 46-501): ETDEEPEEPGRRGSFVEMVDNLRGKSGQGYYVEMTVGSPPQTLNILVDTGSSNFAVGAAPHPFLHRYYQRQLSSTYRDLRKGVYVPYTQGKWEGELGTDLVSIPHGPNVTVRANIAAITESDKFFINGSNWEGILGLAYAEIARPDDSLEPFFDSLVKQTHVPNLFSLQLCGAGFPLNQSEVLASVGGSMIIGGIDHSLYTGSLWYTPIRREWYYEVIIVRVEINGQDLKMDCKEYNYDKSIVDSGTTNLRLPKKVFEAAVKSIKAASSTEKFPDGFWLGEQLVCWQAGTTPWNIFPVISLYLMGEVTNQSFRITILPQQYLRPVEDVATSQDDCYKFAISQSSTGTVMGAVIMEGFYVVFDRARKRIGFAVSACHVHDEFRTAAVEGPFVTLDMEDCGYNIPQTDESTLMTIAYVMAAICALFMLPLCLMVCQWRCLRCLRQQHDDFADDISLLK
# test: In vitro enzymatic BACE FRET assay
# Format: biochemical
# test-context: read-out: BACE1 Enzyme assay IC50
measured-parameter: IC50 (nM)

{"compound": "NC1=N[C@](CF)(c2cc(NC(=O)c3ccc(Cl)cn3)ccc2Cl)[C@H]2C[C@H]2O1", "tested-target": "UniProt P56817", "readout-value": 66.9}
{"compound": "Cc1cc(OC(F)F)cnc1C(=O)Nc1ccc(Cl)c([C@@]2(CF)N=C(N)O[C@@H]3C[C@@H]32)c1", "tested-target": "UniProt P56817", "readout-value": 83.5}
{"compound": "COc1cnc(C(=O)Nc2ccc(F)c([C@]3(C(F)F)N=C(N)O[C@H]4C[C@H]43)c2)c(C)n1 (racemic) [Example 58]", "tested-target": "UniProt P56817", "readout-value": 158}

Origin of the recorded values: patent US9085576B2
